- system: MAP3K12 (human)
- test_details: KINOMEscan competition binding
- condition_description: compound 10.0 µM
# kinase still bound, per cent of control annotations
Give the quantity in %, number only.

Query :: Enter reported kinase still bound, per cent of control observed with MAP3K12 (human) for Cc1cnc(-c2cnc(NCCNc3ccc(C#N)cn3)nc2-c2ccc(Cl)cc2Cl)[nH]1
Result :: 100

Query :: Enter reported kinase still bound, per cent of control observed with MAP3K12 (human) for O=C1Nc2cc(Br)ccc2/C1=C1/Nc2ccccc2/C1=N\O
Result :: 19

Query :: Enter reported kinase still bound, per cent of control observed with MAP3K12 (human) for COc1ccc(CNC(=O)Nc2ncc([N+](=O)[O-])s2)cc1
Result :: 80

Query :: Enter reported kinase still bound, per cent of control observed with MAP3K12 (human) for Cn1cc(C2=C(c3ccc(Cl)cc3Cl)C(=O)NC2=O)c2ccccc21
Result :: 90
